Measured values drawn from patent US20250145594A1 for this set.

System: ATF4 luciferase reporter in HEK293T cells
EXPERIMENT DESCRIPTION: ATF4-Luc assay (in vitro model of VWMD)
Format: cell-based, human
CONDITION DESCRIPTION: Homo sapiens, HEK-293T, 7 h, HEK293T cells carrying the ATF4 luciferase reporter, 1 μg/mL tunicamycin, One Glo luminescence
Experimental: In order to test exemplary compounds of the invention in a cellular context, a stable VWMD cell line was first constructed. […] HEK293T cells carrying the ATF4 luciferase reporter were plated on polylysine coated 384-well plates (Greiner Bio-one) at 30,000 cells per well. […] Luminescence was measured using One Glo (Promega) as specified by the manufacturer. […]
PARAMETER MEASURED: EC50

Query EC50 on ATF4 luciferase reporter in HEK293T cells for O=C(NC12CC(n3cc(OCCOCC(F)(F)F)cn3)(C1)C2)[C@H]1C[C@@H](O)c2cc(Cl)ccc2O1 < 10 nM

Others:
Notebook: pull reported EC50 for ATF4 luciferase reporter in HEK293T cells, entry O=C(NC12CC(n3cc(OCCCOC(F)(F)F)cn3)(C1)C2)[C@H]1C[C@@H](O)c2cc(Cl)ccc2O1 < 10 nM

EC50 of COc1ccc2nn(C34CC(NC(=O)C5CNc6cc(C(F)(F)F)c(F)cc6O5)(C3)C4)cc2n1 (centres unmarked) on ATF4 luciferase reporter in HEK293T cells? 10 to 50 nM

EC50 of O=C(COc1ccc(Cl)c(F)c1)NC12CC(n3cc(C(=O)N4CC[C@H](OC(F)(F)F)C4)nn3)(C1)C2 on ATF4 luciferase reporter in HEK293T cells? < 10 nM

Field: EC50 (ATF4 luciferase reporter in HEK293T cells). Entry: CC(=O)N1CC=C(c2cnn(C34CC(NC(=O)[C@H]5C[C@@H](O)c6cc(Cl)ccc6O5)(C3)C4)c2)CC1 50 to 250 nM

Kindly state the measured EC50 obtained for O=C(NC12CC(n3cc(N4CC[C@@H](OC(F)(F)F)C4)cn3)(C1)C2)[C@H]1C[C@@H](O)c2cc(C(F)(F)F)ccc2O1 with ATF4 luciferase reporter in HEK293T cells. < 10 nM

---

Test system: ATF4 luciferase reporter in HEK293T cells
EXPERIMENT DESCRIPTION: ATF4-Luc assay (in vitro model of VWMD)
Assay type: cell-based, human
CONDITION DESCRIPTION: Homo sapiens, HEK-293T, 7 h, HEK293T cells carrying the ATF4 luciferase reporter, 1 μg/mL tunicamycin, One Glo luminescence
Procedure: In order to test exemplary compounds of the invention in a cellular context, a stable VWMD cell line was first constructed. […] HEK293T cells carrying the ATF4 luciferase reporter were plated on polylysine coated 384-well plates (Greiner Bio-one) at 30,000 cells per well. […] Luminescence was measured using One Glo (Promega) as specified by the manufacturer. […]
This listing pairs compounds with measured EC50.

Find the recorded EC50 belonging to O=C(NC12CC(n3cc(-c4ccc(C(F)(F)F)cn4)cn3)(C1)C2)[C@H]1C[C@@H](O)c2cc(Cl)c(F)cc2O1 and report it. < 10 nM

---
Entry under review: O=C(NC12CC(n3cc(-c4ccc(OC(F)(F)F)cn4)cn3)(C1)C2)[C@H]1C[C@@H](O)c2cc(Cl)ccc2O1 . Reported EC50? < 10 nM

Requested read-out: EC50. Entry: O=C(NC12CC(n3cc(-c4ccc(C(F)(F)F)cn4)cn3)(C1)C2)[C@@H]1C[C@@H](O)c2cc(C(F)(F)F)ccc2O1 < 10 nM

Name the recorded EC50 for O=C(NC12CC(c3cnn([C@H]4C[C@@H](OC(F)(F)F)C4)c3)(C1)C2)[C@H]1C[C@@H](O)c2cc(Cl)ccc2O1 . < 10 nM

Consider the compound O=C(COc1ccc(Cl)c(F)c1)NC12CC(c3ccc(C(=O)N4CC(OC(F)(F)F)C4)nc3)(C1)C2 and give its measured EC50. < 10 nM

Looking for the measured EC50 of O=C(NC12CC(n3cc([C@H]4C[C@@H](OC(F)(F)F)C4)cn3)(C1)C2)[C@H]1C[C@@H](O)c2cc(Cl)ccc2O1 , can you help? < 10 nM

Recorded EC50 of O=C(N[C@H]1CC[C@H](n2cc(OCCOC(F)(F)F)cn2)CC1)[C@H]1C[C@@H](O)c2cc(F)c(F)cc2O1 , please. < 10 nM

EC50 for O=C(CO[C@H]1C[C@@H](OC(F)(F)F)C1)NC12CC(NC(=O)[C@H]3C[C@@H](O)c4cc(Cl)c(F)cc4O3)(C1)C2 ? < 10 nM

GET /values?readout=EC50&item= O=C(NC12CC(c3cnc(OCCOC(F)(F)F)o3)(C1)C2)[C@H]1C[C@@H](O)c2cc(Cl)c(F)cc2O1 < 10 nM

Returns the measured EC50 for the input compound. Input: O=C(CO[C@H]1C[C@@H](OC(F)(F)F)C1)N[C@H]1C[C@H]2C[C@@H]1C[C@@H]2NC(=O)[C@H]1C[C@@H](O)c2cc(C(F)(F)F)c(F)cc2O1 < 10 nM

So what does the record say about EC50 for O=C(NC12CC(n3cc(-c4ccc(OC(F)(F)F)c(F)c4)cn3)(C1)C2)[C@H]1C[C@@H](O)c2cc(Cl)ccc2O1 ? < 10 nM

Return reported EC50; argument: O=C(NC12CC(n3cc(-c4ccc(OC(F)(F)F)cn4)cn3)(C1)C2)[C@H]1C[C@H](O)c2cc(C(F)(F)F)c(F)cc2O1 < 10 nM

// EC50 lookup, key: O=C(NC12CC(n3cc(C(=O)N4CC(COC(F)(F)F)C4)cn3)(C1)C2)[C@H]1C[C@@H](O)c2ccccc2O1 250 to 500 nM
